biological target: human Siglec-7 on primary human monocyte-derived dendritic cells (human, UniProt Q9Y286 19-467); assay: cell-based or functional assay
Sequence (Q9Y286 19-467): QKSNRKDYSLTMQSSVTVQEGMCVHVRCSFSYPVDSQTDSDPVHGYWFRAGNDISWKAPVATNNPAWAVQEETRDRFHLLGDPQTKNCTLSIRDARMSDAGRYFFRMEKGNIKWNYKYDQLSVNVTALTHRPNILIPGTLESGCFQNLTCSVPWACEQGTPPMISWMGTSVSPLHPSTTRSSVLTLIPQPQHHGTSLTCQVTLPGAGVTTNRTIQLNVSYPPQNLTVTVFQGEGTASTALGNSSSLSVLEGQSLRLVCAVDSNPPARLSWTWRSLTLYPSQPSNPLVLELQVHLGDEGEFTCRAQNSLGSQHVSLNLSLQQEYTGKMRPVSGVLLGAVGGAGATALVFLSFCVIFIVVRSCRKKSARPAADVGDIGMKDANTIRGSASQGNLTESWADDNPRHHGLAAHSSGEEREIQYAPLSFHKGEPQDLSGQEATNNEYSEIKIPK
readout.kind: Fold increase in potency compared to Chimeric Ab (fold)
Use fold as the unit, but write only the number.

S7AB-H8.26 (antibody, V domains shown) VH: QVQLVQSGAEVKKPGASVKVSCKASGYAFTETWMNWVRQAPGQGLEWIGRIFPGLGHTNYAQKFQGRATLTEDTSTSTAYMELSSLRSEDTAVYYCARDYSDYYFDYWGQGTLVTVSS VL: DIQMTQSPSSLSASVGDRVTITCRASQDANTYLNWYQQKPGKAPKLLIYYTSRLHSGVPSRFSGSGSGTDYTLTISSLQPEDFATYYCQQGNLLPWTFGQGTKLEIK :: 5.7

What Fold increase in potency compared to Chimeric Ab value was documented for this binder, S7AB-H8.34.2 (antibody, V domains shown) VH: QVQLVQSGAEVKKPGASVKVSCKASGYAFTAAWMNWVRQARGQRLEWIGRIFPGLGHTNYAQKFQGRATLTEDTSTSTAYMELSSLRSEDTAVYYCARDYSDYYFDYWGQGTLVTVSS VL: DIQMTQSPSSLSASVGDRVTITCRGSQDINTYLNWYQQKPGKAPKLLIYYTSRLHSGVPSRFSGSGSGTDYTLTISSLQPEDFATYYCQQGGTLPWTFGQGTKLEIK ? 9.9
